tested_system: LbDHODH (Leishmania braziliensis, UniProt E9AI53)
Sequence (E9AI53 entry or part of it): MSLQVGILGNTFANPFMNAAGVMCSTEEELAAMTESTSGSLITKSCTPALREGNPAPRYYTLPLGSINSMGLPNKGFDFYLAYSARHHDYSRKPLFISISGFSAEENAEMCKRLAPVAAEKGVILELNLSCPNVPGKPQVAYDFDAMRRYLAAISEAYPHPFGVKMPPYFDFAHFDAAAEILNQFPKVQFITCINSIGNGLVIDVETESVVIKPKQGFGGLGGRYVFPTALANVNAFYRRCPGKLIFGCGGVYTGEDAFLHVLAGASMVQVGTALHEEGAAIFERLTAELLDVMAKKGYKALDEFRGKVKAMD
assay_method_text: biochemical
measurement_context: LbDHODH remaining activity, compound 100 μM, without preincubation; read-out: single dose (0 h) % activity
Entries annotated with measured activity at 100 µM
quantity: activity at 100 µM (%)

| compound | quantity | unit_info | recorded_number |
| --- | --- | --- | --- |
| O=C1NC(=O)C(Cc2cccc(O)c2)C(=O)N1 | activity at 100 µM | % | 93 |
| O=C1NC(=O)C(CCCc2ccccc2)C(=O)N1 | activity at 100 µM | % | 98 |
| O=C1NC(=O)C(Cc2ccc(-c3ccccc3)cc2)C(=O)N1 | activity at 100 µM | % | 83 |
| O=C(O)c1cc(=O)[nH]c(=O)[nH]1 [Orotate, orotate] | activity at 100 µM | % | 35 |

---

tested_system: LbDHODH (Leishmania braziliensis, UniProt E9AI53)
assay_method_text: biochemical
measurement_context: 4 h, pH 8.15, read-out: LbDHODH Activity±SD (%)
Entries annotated with measured activity at 400 µM

| smiles_structure | activity at 400 µM |
| --- | --- |
| O=C1NC(=O)C(=Cc2ccccc2)C(=O)N1 | 6% |
| COc1cc(C=C2C(=O)NC(=O)NC2=O)ccc1O | 23% |
| O=C1NC(=O)C(=Cc2ccc(O)c([N+](=O)[O-])c2)C(=O)N1 | 12% |
| O=C1NC(=O)C(=Cc2cccc(O)c2)C(=O)N1 | 5.4% |
| O=C1NC(=O)C(=Cc2ccc(C(=O)O)cc2)C(=O)N1 | 7% |

---

tested_system: LbDHODH (Leishmania braziliensis)
assay_method_text: biochemical
measurement_context: read-out: Single dose (4h) % activity
Response field label: string, one of YES (activity at 100 µM strictly below 10%) or NO.

| smiles_structure | group_label |
| --- | --- |
| O=C1NC(=O)C(Cc2ccccc2)C(=O)N1 | NO |
| O=C1NC(=O)C(=Cc2cccc(O)c2)C(=O)N1 | YES |
| COc1cc(C=C2C(=O)NC(=O)NC2=O)ccc1O | NO |
| O=C1NC(=O)C(=Cc2ccc(-c3ccccc3)cc2)C(=O)N1 | YES |
| O=C1NC(=O)C(=Cc2ccccc2)C(=O)N1 | YES |

---

tested_system: LbDHODH (Leishmania braziliensis, UniProt E9AI53)
assay_method_text: biochemical
measurement_context: 4 h, pH 8.15, read-out: LbDHODH Activity±SD (%)
Response field label: string, one of t (activity at 25 µM strictly below 50%) or f.

| smiles_structure | tested_system | group_label |
| --- | --- | --- |
| O=C1NC(=O)C(=Cc2cccc(O)c2)C(=O)N1 | LbDHODH (Leishmania braziliensis, UniProt E9AI53) | t |
| O=C1NC(=O)C(=Cc2ccc(-c3ccccc3)cc2)C(=O)N1 | LbDHODH (Leishmania braziliensis, UniProt E9AI53) | t |
| O=C1NC(=O)C(=Cc2ccc(C(=O)O)cc2)C(=O)N1 | LbDHODH (Leishmania braziliensis, UniProt E9AI53) | f |
| COc1cc(C=C2C(=O)NC(=O)NC2=O)ccc1O | LbDHODH (Leishmania braziliensis, UniProt E9AI53) | f |
| O=C1NC(=O)C(=Cc2ccc(N3CCOCC3)cc2[N+](=O)[O-])C(=O)N1 | LbDHODH (Leishmania braziliensis, UniProt E9AI53) | f |
| O=C1NC(=O)C(=Cc2ccccc2)C(=O)N1 | LbDHODH (Leishmania braziliensis, UniProt E9AI53) | t |

---

Entries annotated with measured Kobs
tested_system: LbDHODH (Leishmania braziliensis, UniProt E9AI53)
assay_method_text: Kinact/KI determination from LbDHODH progress curves (kobs vs inhibitor concentration)
Assay type: biochemical
measurement_context: inhibitor 1.5625 µM

| smiles_structure | unit_info | Kobs |
| --- | --- | --- |
| O=C1NC(=O)C(=Cc2cccc(O)c2)C(=O)N1 | s⁻¹ | 0.00383 |
| O=C1NC(=O)C(=Cc2ccccc2)C(=O)N1 | s⁻¹ | 0.003467 |
| O=C1NC(=O)C(=Cc2ccc(O)c([N+](=O)[O-])c2)C(=O)N1 | s⁻¹ | 0.003613 |
| O=C1NC(=O)C(=C/C=C/c2ccccc2)C(=O)N1 | s⁻¹ | 0.003849 |

---

tested_system: LbDHODH (Leishmania braziliensis, UniProt E9AI53)
assay_method_text: biochemical
measurement_context: 0 h, pH 8.15, read-out: LbDHODH Activity±SD (%)
Entries annotated with measured activity at 0.195312 µM

| compound | unit_info | activity at 0.195312 µM |
| --- | --- | --- |
| O=C1NC(=O)C(=Cc2ccc(C(=O)O)cc2)C(=O)N1 [2b] | % | 98 |
| O=C1NC(=O)C(=Cc2ccccc2)C(=O)N1 [2a] | % | 108 |
| O=C1NC(=O)C(=C/C=C/c2ccccc2)C(=O)N1 [2i] | % | 83 |
| O=C1NC(=O)C(=Cc2ccc(-c3ccccc3)cc2)C(=O)N1 [2f] | % | 97 |
| O=C1NC(=O)C(=Cc2ccc(N3CCOCC3)cc2[N+](=O)[O-])C(=O)N1 [2e] | % | 94 |

---

tested_system: LbDHODH (Leishmania braziliensis)
assay_method_text: biochemical
measurement_context: read-out: enzyme inhibition
quantity: inhibition at 100 µM (%)

| molecule | quantity | unit_info | recorded_number |
| --- | --- | --- | --- |
| O=C1NC(=O)C(=C/C=C/c2ccccc2)C(=O)N1 [2i] | inhibition at 100 µM | % | 97 |
| O=C1NC(=O)C(=Cc2ccccc2)C(=O)N1 [2a] | inhibition at 100 µM | % | 96.5 |
| O=C1NC(=O)C(=Cc2ccc(-c3ccccc3)cc2)C(=O)N1 [2f] | inhibition at 100 µM | % | 96.2 |

---

assay_method_text: Parallel artificial membrane permeability assay (PAMPA)
measurement_context: PAMPA, pH 7.4, % Recovery n=2, replicate n=2; 10µM, PBS pH 7.4/7.4, 6h at room temperature
quantity: recovery at 6 h, 10 µM (%)

| compound | recorded_number |
| --- | --- |
| NC(=O)N1c2ccccc2C=Cc2ccccc21 [Carbamazepine] | 92.5 |
| O=C1NC(=O)C(=Cc2ccc(N3CCOCC3)cc2[N+](=O)[O-])C(=O)N1 | 101 |
| O=C1NC(=O)C(=Cc2ccc(-c3ccccc3F)[nH]2)C(=O)N1 | 43.3 |
| O=C1NC(=O)C(=C/C=C/c2ccccc2)C(=O)N1 | 15.8 |
| CC(C)NCC(O)COc1cccc2ccccc12 (stereo not shown) | 82.4 |
| COc1cc(C=C2C(=O)NC(=O)NC2=O)ccc1O | 96 |
| NS(=O)(=O)c1cc(C(=O)O)c(NCc2ccco2)cc1Cl [Furosemide] | 91.4 |

---

tested_system: LbDHODH (Leishmania braziliensis)
assay_method_text: biochemical
measurement_context: 4 h, pH 8.15, read-out: LbDHODH Activity±SD (%)

| smiles_structure | unit_info | activity at 6.25 µM |
| --- | --- | --- |
| O=C1NC(=O)C(=Cc2cccc(O)c2)C(=O)N1 | % | 75 |
| O=C1NC(=O)C(=Cc2ccccc2)C(=O)N1 | % | 54 |
| O=C1NC(=O)C(=Cc2ccc(O)c([N+](=O)[O-])c2)C(=O)N1 | % | 57 |
| O=C1NC(=O)C(=Cc2ccc(C(=O)O)cc2)C(=O)N1 | % | 83 |
| COc1cc(C=C2C(=O)NC(=O)NC2=O)ccc1O | % | 86 |
| O=C1NC(=O)C(=Cc2ccc(N3CCOCC3)cc2[N+](=O)[O-])C(=O)N1 | % | 87 |
| O=C1NC(=O)C(=Cc2ccc(-c3ccccc3)cc2)C(=O)N1 | % | 53 |

---

assay_method_text: Parallel artificial membrane permeability assay (PAMPA)
measurement_context: replicate n=1; 10µM, PBS pH 7.4/7.4, 6h at room temperature
quantity: % Recovery n=1 (%)

| smiles_structure | quantity | recorded_number |
| --- | --- | --- |
| COc1cc(C=C2C(=O)NC(=O)NC2=O)ccc1O | % Recovery n=1 | 86.6 |
| O=C1NC(=O)C(=Cc2ccc(N3CCOCC3)cc2[N+](=O)[O-])C(=O)N1 | % Recovery n=1 | 95.05 |
| O=C1NC(=O)C(=Cc2ccc(-c3ccccc3F)[nH]2)C(=O)N1 | % Recovery n=1 | 37.96 |
| O=C1NC(=O)C(=C/C=C/c2ccccc2)C(=O)N1 | % Recovery n=1 | 14.26 |

---

assay_method_text: in vitro
measurement_context: mouse, microsomes, pH 7.4, % Remaining, T=60 NCF, n=2

| smiles_structure | remaining at 1 h, 1 µM |
| --- | --- |
| O=C(O)Cc1ccccc1Nc1c(Cl)cccc1Cl | 88.5% |

Origin of measurements: paper PMC12481576
